- Tested on: Klebsiella aerogenes DSM 30053
- TEST_METHOD_NOTES: growth (OD595) fold change vs plate DMSO controls (fold change (ratio)); higher = more growth
- CONDITION_INFO: incubation time: 27 h, anaerobic, 37 °C
Structures can show the parent of a compound that is named as a salt.
Assign growth to each entry below.
Numbers only.

compound="CC1COc2c(N3CCN(C)CC3)c(F)cc3c(=O)c(C(=O)O)cn1c23 (stereo not drawn) [Ofloxacin] (20 µM)" tested_system="Klebsiella aerogenes DSM 30053" readout_name=growth reported_result=0.256

Batch request: growth per item, same order as input.
1. CC1(C)O[C@@H]2C[C@H]3[C@@H]4C[C@H](F)C5=CC(=O)CC[C@]5(C)[C@H]4[C@@H](O)C[C@]3(C)[C@]2(C(=O)CO)O1 [Flurandrenolide] (20 µM)
2. COc1ccc2c3c1O[C@H]1C[C@@H](O)C=C[C@@]31CCN(C)C2 [Galanthamine hydrobromide] (20 µM)
3. CCN(CC)C(=O)Nc1ccc(OCC(O)CNC(C)(C)C)c(C(C)=O)c1 (stereo not drawn) [Celiprolol hydrochloride] (20 µM)
4. Cc1cc(C2CCCCC2)n(O)c(=O)c1 [Ciclopirox ethanolamine] (20 µM)

Result:
0.987
1.04
0.953
1.06

Give growth for all compounds that follow.
1. CCSc1ccc2c(c1)N(CCCN1CCN(C)CC1)c1ccccc1S2 [Thiethylperazine maleate] (20 µM)
2. CC(C)NCC(O)c1cc(O)cc(O)c1 (stereo not drawn) [Metaproterenol sulfate] (20 µM)
3. CN(C)CCc1c[nH]c2ccc(C[C@H]3COC(=O)N3)cc12 [Zolmitriptan] (20 µM)
4. CC#C[C@]1(O)CC[C@H]2[C@@H]3CCC4=CC(=O)CCC4=C3[C@@H](c3ccc(N(C)C)cc3)C[C@@]21C [Mifepristone] (20 µM)
5. O=C(O)CCc1nc(-c2ccccc2)c(-c2ccccc2)o1 [Oxaprozin] (20 µM)

Result:
1: 1.17; 2: 1.02; 3: 1.01; 4: 0.986; 5: 0.984

---

- Tested on: Escherichia coli IAI1
- TEST_METHOD_NOTES: fold change of Cadaverine concentration vs plate DMSO controls (fold change (ratio)); higher = more amine produced, active = hit call of the paper (significant change in both replicates, either direction)
- CONDITION_INFO: incubation time: 27 h, anaerobic, 37 °C
Structures can show the parent of a compound that is named as a salt.
READOUT_NAME: fold change of Cadaverine concentration
Give bare numbers.

Worked cases, fold change of Cadaverine concentration given:
molecule="C[N+]1(C)CCC(=C(c2ccccc2)c2ccccc2)CC1 [Diphemanil methylsulfate] (20 µM)" readout_name="fold change of Cadaverine concentration" reported_result=1.02
molecule="Cc1ccc(S(=O)(=O)NC(=O)NN2CCCCCC2)cc1 [Tolazamide] (20 µM)" readout_name="fold change of Cadaverine concentration" reported_result=1.02
molecule="CC(c1cc2ccccc2s1)N(O)C(N)=O (configuration not stated) [Zileuton] (20 µM)" readout_name="fold change of Cadaverine concentration" reported_result=1
molecule="C[n+]1ccccc1/C=N/O [Pralidoxime chloride] (20 µM)" readout_name="fold change of Cadaverine concentration" reported_result=1.02
molecule="CN(C)C(=O)C(CCN1CCC(O)(c2ccc(Cl)cc2)CC1)(c1ccccc1)c1ccccc1 [Loperamide hydrochloride] (20 µM)" readout_name="fold change of Cadaverine concentration" reported_result=1.02

For every listed record, write down its fold change of Cadaverine concentration.
1. CN(C)c1nc(N(C)C)nc(N(C)C)n1 [Altretamine] (20 µM)
2. O=C(O)CCCC[C@@H]1SC[C@@H]2NC(=O)N[C@@H]21 [Biotin] (20 µM)

Result:
[1.01, 1.01]

---

- System: Klebsiella aerogenes DSM 30053
- TEST_METHOD_NOTES: fold change of Histamine concentration vs plate DMSO controls (fold change (ratio)); higher = more amine produced, active = hit call of the paper (significant change in both replicates, either direction)
- CONDITION_INFO: incubation time: 27 h, anaerobic, 37 °C
Structures can show the parent of a compound that is named as a salt.
Give measured fold change of Histamine concentration for each item. Keep answers brief.
Answers are plain numbers.

// worked examples, fold change of Histamine concentration included
molecule="CN1Cc2c(N)cccc2C(c2ccccc2)C1 (stereo not given) [Nomifensine maleate] (20 µM)" tested_system="Klebsiella aerogenes DSM 30053" reported_result=0.994
molecule="CC(C)=CCOc1ccc(/C=C/C(=O)c2ccc(OCC=C(C)C)cc2OCC(=O)O)cc1 [Sofalcone] (20 µM)" tested_system="Klebsiella aerogenes DSM 30053" reported_result=1
molecule="O=C(O)CSCC(=O)NC1CCSC1=O (stereo not given) [Erdosteine] (20 µM)" tested_system="Klebsiella aerogenes DSM 30053" reported_result=0.984
molecule="O=C1C(=O)c2ccccc2C(O)=C1C1CCC(c2ccc(Cl)cc2)CC1 (stereo not given) [Atovaquone] (20 µM)" tested_system="Klebsiella aerogenes DSM 30053" reported_result=1.01
molecule="N=C(N)N/N=C/c1c(Cl)cccc1Cl [Guanabenz acetate] (20 µM)" tested_system="Klebsiella aerogenes DSM 30053" reported_result=1.02
molecule="COC(=O)[C@H](Cc1ccccc1)NC(=O)[C@H](CC(=O)O)NCCC(C)(C)C [Neotame] (50 µM)" tested_system="Klebsiella aerogenes DSM 30053" reported_result=0.99
molecule="CCCCOCCOCCOCc1cc2c(cc1CCC)OCO2 (20 µM)" tested_system="Klebsiella aerogenes DSM 30053" reported_result=0.98
molecule="CC1CC(OC(=O)C(O)c2ccccc2)CC(C)(C)C1 (stereo not given) [Cyclandelate] (20 µM)" tested_system="Klebsiella aerogenes DSM 30053" reported_result=0.997

I need fold change of Histamine concentration for every entry listed below, if you could help.
1. Cc1cccc(C)c1NC(=O)CN1CCN(CCCC(c2ccc(F)cc2)c2ccc(F)cc2)CC1 [Lidoflazine] (20 µM)
2. CNC1(C)C2CCC(C2)C1(C)C (stereo not given) [Mecamylamine hydrochloride] (20 µM)

Result:
1: 1.01; 2: 1.02

---

I'd appreciate it if you could supply growth values for the items below.
- Test system: Escherichia coli IAI1
- TEST_METHOD_NOTES: growth (OD595) fold change vs plate DMSO controls (fold change (ratio)); higher = more growth
- CONDITION_INFO: incubation time: 27 h, anaerobic, 37 °C
Structures can show the parent of a compound that is named as a salt.
Numbers only.

Answered examples (4):
compound="C[n+]1ccccc1/C=N/O [Pralidoxime chloride] (20 µM)" reported_result=0.995
compound="CN(c1nccc(=O)[nH]1)C1CCN(c2nc3ccccc3n2Cc2ccc(F)cc2)CC1 [Mizolastine] (20 µM)" reported_result=1.02
compound="CC1(C)[C@@H](OC(=O)CCC(=O)O)CC[C@]2(C)[C@H]3C(=O)C=C4[C@@H]5C[C@@](C)(C(=O)O)CC[C@]5(C)CC[C@@]4(C)[C@]3(C)CC[C@@H]12 [Carbenoxolone disodium salt] (20 µM)" reported_result=0.984
compound="CCCC1C(=O)N2C(N(C)C)=Nc3ccc(C)cc3N2C1=O (stereo unspecified) [Azapropazone] (20 µM)" reported_result=1

Hey, quick one: what's growth for each of these?
1. C#C[C@]1(OC(C)=O)CC[C@H]2[C@@H]3CCC4=CC(=NO)CC[C@@H]4[C@H]3CC[C@@]21CC (mixture of isomers) [Norgestimate] (20 µM)
2. O=C(O)c1ccccc1Nc1cc(Cl)ccc1C(=O)O [Lobenzarit disodium] (20 µM)

Result:
[0.998, 1]

---

Field: fold change of 2-Phenylethylamine concentration. Provide a value for each of the compounds that follow.
- Tested on: Ruminococcus gnavus DSM 108212
- TEST_METHOD_NOTES: fold change of 2-Phenylethylamine concentration vs plate DMSO controls (fold change (ratio)); higher = more amine produced, active = hit call of the paper (significant change in both replicates, either direction)
- CONDITION_INFO: incubation time: 27 h, anaerobic, 37 °C
Where a name gives a salt, the structure may show the parent alone.
Numbers only.

Record excerpt, results attached:
compound="O=C(O)[C@H]1/C(=C/CO)O[C@@H]2CC(=O)N21 [Clavulanate potassium salt] (20 µM)" reported_result=1.02
compound="OCc1cc(C(O)CNCCCCCCOCCCCc2ccccc2)ccc1O (stereo not drawn) [Salmeterol] (20 µM)" reported_result=0.981

Turning to the following compound.
Q: Provide fold change of 2-Phenylethylamine concentration, tested on Ruminococcus gnavus DSM 108212, for CCOC(=O)n1ccn(C)c1=S [Carbimazole] (20 µM) .
Result: 1.01

---

Kindly state fold change of Cadaverine concentration for each of the entries shown.
- Test system: Escherichia coli IAI1
- TEST_METHOD_NOTES: fold change of Cadaverine concentration vs plate DMSO controls (fold change (ratio)); higher = more amine produced, active = hit call of the paper (significant change in both replicates, either direction)
- CONDITION_INFO: incubation time: 27 h, anaerobic, 37 °C
Structures can show the parent of a compound that is named as a salt.
Give bare numbers.

compound="OC[C@@H](O)[C@@H](O[C@@H]1O[C@H](CO)[C@H](O)[C@H](O)[C@H]1O)[C@H](O)[C@@H](O)CO [Lactitol] (50 µM)" reported_result=0.997

Here are 4 compounds. What values of fold change of Cadaverine concentration were reported for them?
1. N[C@@H]1CONC1=O [D-cycloserine] (20 µM)
2. O=C(NCCN1CCOCC1)c1ccc(Cl)cc1 [Moclobemide] (20 µM)
3. CC(C)(C)NC[C@@H](O)COc1cccc2c1CCCC2=O [(+) Levobunolol hydrochloride] (20 µM)
4. CCc1cc(Cl)c(OC)c(C(=O)NC[C@@H]2CCCN2CC)c1O [(S,-) Eticlopride hydrochloride] (20 µM)

Result:
[1.02, 1.01, 0.994, 1.01]
